Square brackets hold non-standard residues; d marks the D form. Peptide text beside a SMILES is read from it. * marks the point of attachment. ξ: configuration not given here. Cbz = O=C(OCc1ccccc1)*; Boc = CC(C)(C)OC(=O)*; ξV = CC(C)C(N)C(=O)O; OBn = c1ccc(CO*)cc1; Bn = c1ccc(C*)cc1
As a worked illustration, we turn to pIC50 data collected for UniProt P56817.
As a rule, pIC50 stands for the negative log10 of the concentration, concentration in M.

For this compound ( O=C(Nc1ccc(Cl)c(C(F)(F)F)c1)C(NS(=O)(=O)c1cccs1)c1ccccc1 (stereo not given) ), measured pIC50 is 4.00

For this compound ( O=C(NCc1ccc(F)cc1)c1ccc(N2CC3CC(C2)c2cccc(=O)n2C3)c(NS(=O)(=O)c2ccc3c(c2)OCCO3)c1 (stereo not given) ), measured pIC50 is 4.00

For this compound ( CCCCc1ccc(Nc2nc3ccccc3nc2NS(=O)(=O)c2ccc(Cl)cc2)cc1 ), measured pIC50 is 4.00

For this compound ( CC(=O)Nc1cc(C(=O)NCc2cc(F)cc(Cl)c2)ccc1Sc1ccc(Cl)cc1 ), measured pIC50 is 4.00

For this compound ( CCSc1scc(CC)c1C1C(C(=O)Nc2ccc(Br)cn2)=C(C)NC2=C1C(=O)CC(C)(C)C2 (stereo not given) ), measured pIC50 is 4.00

For this compound ( O=C(Nc1ccccc1C(=O)NCC(O)CNC(=O)c1ccccc1NC(=O)c1ccccc1)c1ccccc1 ), measured pIC50 is 4.00

For this compound ( COc1ccc(C(=O)Nc2ccccc2C(=O)NC(CCSC)C(=O)NNC(=O)Sc2nc3ccccc3s2)cc1 (stereo not given) ), measured pIC50 is 4.30

For this compound ( CCc1ccc(N2C(=O)Nc3ccc(Br)cc3C2(O)C(=O)NCC(C)CN2CCC(C)CC2)cc1 (stereo not given) ), measured pIC50 is 4.00

For this compound ( C[C@@H](NC(=O)c1cc(C(=O)N[C@@H](Cc2ccccc2)[C@H](O)CN)cc(N(C)S(C)(=O)=O)c1)c1ccc(F)cc1 ), measured pIC50 is 4.64

For this compound ( C[C@@H](NC(=O)c1cc(NS(C)(=O)=O)cc(C(=O)N[C@@H](Cc2ccccc2)[C@H](O)CNC2CC2)c1)c1ccc(F)cc1 ), measured pIC50 is 4.20

For this compound ( CC(C)C(NC(=O)CNC(=O)CNC(=O)OCc1ccccc1)C(=O)O (stereo not drawn) (Cbz-Gly-Gly-[ξV]-OH) ), measured pIC50 is 3.30

For this compound ( O=C(O)c1cc(-c2ccc(/C=N/Nc3nc(Nc4ccc(F)cc4)nc(N4CCCCC4)n3)o2)ccc1O ), measured pIC50 is 4.55

For this compound ( Cc1ccc(NC(=O)c2cc(NC(=O)CCCC(=O)O)ccc2N2CCOCC2)cc1 ), measured pIC50 is 3.30

For this compound ( COc1ccc(NC(=O)c2cccc(NC(=O)C[n+]3cccc(C(N)=O)c3)c2)cc1 ), measured pIC50 is 5.72

For this compound ( O=C(Nc1cc(Br)ccc1N1CCOCC1)c1cc2ccccc2oc1=O ), measured pIC50 is 5.00

For this compound ( COc1cccc2cc(C(=O)Nc3cc(Br)ccc3N3CCN(Cc4ccccc4)CC3)c(=O)oc12 ), measured pIC50 is 5.30

For this compound ( O=C(NCc1ccc(Cl)cc1)c1ccc(N2CC3CC(C2)c2cccc(=O)n2C3)c(NS(=O)(=O)c2ccc3c(c2)OCCO3)c1 (stereo not given) ), measured pIC50 is 4.00

For this compound ( O=C(O)c1cc(-c2ccc(/C=N/Nc3nc(Nc4ccc(F)cc4)nc(N4CCOCC4)n3)o2)ccc1Cl ), measured pIC50 is 5.15

For this compound ( C=CCn1c(SCC(=O)Nc2ccc(S(N)(=O)=O)cc2)nc2sc3c(c2c1=O)CCCC3 ), measured pIC50 is 4.00

For this compound ( COc1cccc(C(=O)OCC(=O)NCc2ccc(Cl)cc2Cl)c1O ), measured pIC50 is 3.30

For this compound ( Cc1cc(C)nc(NS(=O)(=O)c2ccc(Nc3nc(-c4ccc(C(C)C)cc4)cs3)cc2)n1 ), measured pIC50 is 3.00

For this compound ( O=C(NCc1ccccc1Cl)c1ccc(N2CC3CC(C2)c2cccc(=O)n2C3)c(NS(=O)(=O)c2ccc3c(c2)OCCO3)c1 (stereo not given) ), measured pIC50 is 4.00

For this compound ( Clc1nc(NCCN2CCOCC2)nc(NCc2ccc(I)cc2)n1 ), measured pIC50 is 4.00

For this compound ( CCN1CCN(CCNC(=O)c2ccc3c(=O)n(Cc4ccc(Cl)cc4)c(=S)[nH]c3c2)CC1 ), measured pIC50 is 4.00

For this compound ( Cc1ccc(C(=O)Nc2cccc(NC(=O)C[n+]3cccc(C(=O)NCCc4ccccc4)c3)c2)cc1 ), measured pIC50 is 5.66

For this compound ( Cc1c(CC(=O)N[C@H](CCCNC(N)=O)C(=O)O)c(=O)oc2c(C)c(O)ccc12 ), measured pIC50 is 3.30

For this compound ( CCNC[C@@H](O)[C@H](Cc1ccccc1)NC(=O)c1cc(C(=O)N[C@H](C)c2ccc(F)cc2)cc(N(C)S(C)(=O)=O)c1 ), measured pIC50 is 4.82

For this compound ( C[C@@H](NC(=O)c1cc(C(=O)N[C@@H](Cc2ccccc2)[C@H](O)CNC2CC2)cc(N(C)S(C)(=O)=O)c1)c1ccc(F)cc1 ), measured pIC50 is 5.00

For this compound ( CCOC(=O)C(Cc1ccc(O)cc1)NS(=O)(=O)c1ccc2c(c1)C(=O)c1ccccc1C2=O (stereo not given) ), measured pIC50 is 4.00

For this compound ( CCc1ccc(N2C(=O)Nc3ccc(Br)cc3C2(O)C(=O)NCc2ccccc2)cc1 (stereo not given) ), measured pIC50 is 4.00

For this compound ( CCN1CCCC1CNC(=O)c1ccc2c(=O)n(Cc3ccc(Cl)cc3)c(=S)[nH]c2c1 (stereo not given) ), measured pIC50 is 4.00

For this compound ( Oc1ccc(-c2ccccc2)cc1CN1CCN(Cc2cc(-c3ccccc3)ccc2O)CC1 ), measured pIC50 is 4.00

For this compound ( CCc1cc(=O)oc2c(C)c(OC(=O)NCC(=O)NCC(=O)O)ccc12 ), measured pIC50 is 3.30

For this compound ( O=C(O)CC(NNc1nc(NCCO)nc(N2CCOCC2)n1)c1ccccc1 (stereo not given) ), measured pIC50 is 3.30

For this compound ( CC(C)(C)OC(=O)NC(CC(=O)OCc1ccccc1)C(=O)NC(COCc1ccccc1)C(=O)NCC(=O)OCc1ccccc1 (stereo not given) (Boc-Asp(OBn)-Ser(Bn)-Gly-OBn; configuration not given here) ), measured pIC50 is 4.00

---

target system: Beta-secretase 1 (Homo sapiens)
Sequence (P56817 whole entry): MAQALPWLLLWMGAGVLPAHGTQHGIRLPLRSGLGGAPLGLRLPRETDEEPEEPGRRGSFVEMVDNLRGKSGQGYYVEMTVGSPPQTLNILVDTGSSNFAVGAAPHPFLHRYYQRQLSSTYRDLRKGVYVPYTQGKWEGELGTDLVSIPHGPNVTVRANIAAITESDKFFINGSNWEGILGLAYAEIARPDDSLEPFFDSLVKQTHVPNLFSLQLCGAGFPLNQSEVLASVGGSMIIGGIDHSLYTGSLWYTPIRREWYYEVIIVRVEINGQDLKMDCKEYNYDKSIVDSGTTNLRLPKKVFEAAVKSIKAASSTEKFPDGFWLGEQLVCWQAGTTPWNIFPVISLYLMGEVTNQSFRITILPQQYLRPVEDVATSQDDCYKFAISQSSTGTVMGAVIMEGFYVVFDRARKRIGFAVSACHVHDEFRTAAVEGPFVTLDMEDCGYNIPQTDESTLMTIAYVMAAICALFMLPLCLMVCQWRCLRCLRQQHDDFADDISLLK
protocol notes: Inhibition of BACE1 at 50 uM after 2 hrs by FRET assay
Would you mind telling me the reported inhibition of each entry?
Note: unit % is implicit; provide only the numeric part.

For this compound ( Cc1ccc(C(=O)Nc2cccc(NC(=O)C[n+]3cccc(C(N)=O)c3)c2)cc1 ), measured inhibition is 24

For this compound ( NC(=O)c1ccc[n+](CC(=O)Nc2cccc(NC(=O)c3ccccc3)c2)c1 ), measured inhibition is 54

For this compound ( Cc1ccc(S(=O)(=O)Nc2cccc(NC(=O)C[n+]3cccc(C(=O)NCCc4ccccc4)c3)c2)cc1 ), measured inhibition is 36

For this compound ( Cc1ccc(S(=O)(=O)Nc2cccc(NC(=O)C[n+]3cccc(C(N)=O)c3)c2)cc1 ), measured inhibition is 4

For this compound ( Cc1ccc(C(=O)Nc2cccc(NC(=O)C[n+]3cccc(C(=O)NCCc4ccccc4)c3)c2)cc1 ), measured inhibition is 100

For this compound ( Cc1cccc(NC(=O)c2cccc(NC(=O)C[n+]3cccc(C(N)=O)c3)c2)c1 ), measured inhibition is 44

For this compound ( O=C(C[n+]1ccccc1)Nc1cccc(NC(=O)c2ccccc2)c1 ), measured inhibition is 51

For this compound ( Cc1ccc(C(=O)Nc2cccc(NC(=O)C[n+]3ccccc3)c2)cc1 ), measured inhibition is 68

For this compound ( Cc1ccc(NC(=O)c2cccc(NC(=O)C[n+]3cccc(C(N)=O)c3)c2)cc1 ), measured inhibition is 69

For this compound ( O=C(C[n+]1ccccc1)Nc1cccc(C(=O)Nc2ccc(Cl)cc2)c1 ), measured inhibition is 100

For this compound ( COc1ccc(NC(=O)c2cccc(NC(=O)C[n+]3ccccc3)c2)cc1 ), measured inhibition is 100

For this compound ( O=C(C[n+]1cccc(C(=O)NCCc2ccccc2)c1)Nc1cccc(C(=O)Nc2ccc(Cl)cc2)c1 ), measured inhibition is 78

For this compound ( COc1ccc(NC(=O)c2cccc(NC(=O)C[n+]3cccc(C(=O)NCCc4ccccc4)c3)c2)cc1 ), measured inhibition is 44
